Entries and their measured phosphorylation enrichment follow.
Target: MERTK (UniProt Q12866)
Sequence (Q12866 whole entry, looked up): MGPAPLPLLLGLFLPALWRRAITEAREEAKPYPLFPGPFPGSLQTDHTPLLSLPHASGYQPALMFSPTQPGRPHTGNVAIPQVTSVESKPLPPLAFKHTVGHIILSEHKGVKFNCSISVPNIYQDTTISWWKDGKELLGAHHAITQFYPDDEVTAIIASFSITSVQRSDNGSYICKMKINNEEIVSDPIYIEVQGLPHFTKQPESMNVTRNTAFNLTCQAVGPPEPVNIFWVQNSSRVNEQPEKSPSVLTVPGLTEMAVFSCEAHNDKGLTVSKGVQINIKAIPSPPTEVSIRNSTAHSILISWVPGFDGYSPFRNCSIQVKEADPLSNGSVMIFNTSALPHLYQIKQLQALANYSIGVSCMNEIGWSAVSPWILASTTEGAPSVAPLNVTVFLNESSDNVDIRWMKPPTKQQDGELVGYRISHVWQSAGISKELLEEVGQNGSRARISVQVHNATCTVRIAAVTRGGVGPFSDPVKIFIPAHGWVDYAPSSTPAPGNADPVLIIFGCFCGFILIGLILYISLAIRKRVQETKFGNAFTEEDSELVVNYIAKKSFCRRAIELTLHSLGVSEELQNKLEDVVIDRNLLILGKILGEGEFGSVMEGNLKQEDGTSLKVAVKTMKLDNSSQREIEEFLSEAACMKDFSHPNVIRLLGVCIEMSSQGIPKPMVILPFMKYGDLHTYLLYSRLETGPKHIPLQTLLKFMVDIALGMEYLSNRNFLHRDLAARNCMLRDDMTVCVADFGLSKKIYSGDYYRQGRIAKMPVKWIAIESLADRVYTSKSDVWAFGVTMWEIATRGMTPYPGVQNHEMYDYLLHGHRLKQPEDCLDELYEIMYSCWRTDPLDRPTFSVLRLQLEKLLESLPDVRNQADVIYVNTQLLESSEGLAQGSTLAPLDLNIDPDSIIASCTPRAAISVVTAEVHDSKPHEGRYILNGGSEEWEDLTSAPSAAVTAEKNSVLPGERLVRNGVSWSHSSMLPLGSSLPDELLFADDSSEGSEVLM
Assay: phosphorylation enrichment, bacterial display (enrichment ratio); higher = better substrate or ligand; peptides without Tyr show the background;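 also: 11-residue human phosphosite peptides and single-mutation variants displayed on the E. coli surface, counted by deep sequencing, each peptide's frequency after selection divided by its frequency in the unselected input library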;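 also: frequency after pTyr selection over input frequency; kinase dosed for 20-30% of maximal phosphorylation in three min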

{"RESIDUE_CODES": "KNEVLYDEENH [ARFGEF1_Y314_G316E]", "TARGET": "MERTK (UniProt Q12866)", "phosphorylation enrichment": 0.401}
{"RESIDUE_CODES": "PFDAEYGGGGG [AKR1B10_Y316_N313D]", "TARGET": "MERTK (UniProt Q12866)", "phosphorylation enrichment": 0.783}
{"RESIDUE_CODES": "GCLSKYSGVFS [TUBGCP6_Y1624_V1621L]", "TARGET": "MERTK (UniProt Q12866)", "phosphorylation enrichment": 0.46}
{"RESIDUE_CODES": "MDNQEYKDAYK [BRDT_Y331]", "TARGET": "MERTK (UniProt Q12866)", "phosphorylation enrichment": 0.445}
{"RESIDUE_CODES": "GEDLSYGDVPP [IRS1_Y151]", "TARGET": "MERTK (UniProt Q12866)", "phosphorylation enrichment": 0.463}
{"RESIDUE_CODES": "LTERGYSFVTT [ACTA1_Y200]", "TARGET": "MERTK (UniProt Q12866)", "phosphorylation enrichment": 0.769}
{"RESIDUE_CODES": "DDPRTYQKYGY [OAS1_Y362_R361T]", "TARGET": "MERTK (UniProt Q12866)", "phosphorylation enrichment": 0.421}
{"RESIDUE_CODES": "VNFDDYTVNLG [GFPT1_Y367]", "TARGET": "MERTK (UniProt Q12866)", "phosphorylation enrichment": 0.487}
{"RESIDUE_CODES": "AESPEHVHMYT [FAM111A_Y511_Y511H]", "TARGET": "MERTK (UniProt Q12866)", "phosphorylation enrichment": 0.377}
{"RESIDUE_CODES": "ATCKAYGQALA [TKT_Y321_R318C]", "TARGET": "MERTK (UniProt Q12866)", "phosphorylation enrichment": 0.419}
{"RESIDUE_CODES": "SGIFQYIIAKF [FOXL2_Y83_YF]", "TARGET": "MERTK (UniProt Q12866)", "phosphorylation enrichment": 0.518}
{"RESIDUE_CODES": "KSMSVYCTPNK [ATP2A2_Y497]", "TARGET": "MERTK (UniProt Q12866)", "phosphorylation enrichment": 0.653}
{"RESIDUE_CODES": "EQKKYYNAVKK [SCN5A_Y1495_M1498V]", "TARGET": "MERTK (UniProt Q12866)", "phosphorylation enrichment": 0.563}
{"RESIDUE_CODES": "SSTASYFKAPG [RFX2_Y108_E110K]", "TARGET": "MERTK (UniProt Q12866)", "phosphorylation enrichment": 0.415}
{"RESIDUE_CODES": "EYGRRYGFSRQ [CCDC93_Y209]", "TARGET": "MERTK (UniProt Q12866)", "phosphorylation enrichment": 0.534}
{"RESIDUE_CODES": "KAFDMYSGDVM [FAM3D_Y122]", "TARGET": "MERTK (UniProt Q12866)", "phosphorylation enrichment": 0.876}
{"RESIDUE_CODES": "KLPDAYERLIL [G6PD_Y437]", "TARGET": "MERTK (UniProt Q12866)", "phosphorylation enrichment": 0.522}
{"RESIDUE_CODES": "DNEAIYDICRC [TUBA4A_Y210_R215C]", "TARGET": "MERTK (UniProt Q12866)", "phosphorylation enrichment": 5.93}
{"RESIDUE_CODES": "EEQKKYFNATK [SCN5A_Y1494_M1498T_YF]", "TARGET": "MERTK (UniProt Q12866)", "phosphorylation enrichment": 0.269}
{"RESIDUE_CODES": "LKRIAYFLCLR [LGI1_Y21_L26R]", "TARGET": "MERTK (UniProt Q12866)", "phosphorylation enrichment": 0.359}
{"RESIDUE_CODES": "IGMFSYVMLAS [GGCX_Y301]", "TARGET": "MERTK (UniProt Q12866)", "phosphorylation enrichment": 0.477}
{"RESIDUE_CODES": "AIGYEYSEINI [SIGLEC12_Y588]", "TARGET": "MERTK (UniProt Q12866)", "phosphorylation enrichment": 0.492}
{"RESIDUE_CODES": "KNDSKYVVKGN [KIT_Y823_N822K]", "TARGET": "MERTK (UniProt Q12866)", "phosphorylation enrichment": 0.316}
{"RESIDUE_CODES": "AFLLLYFNDTH [BMP15_Y235]", "TARGET": "MERTK (UniProt Q12866)", "phosphorylation enrichment": 0.43}
{"RESIDUE_CODES": "RDLEQYVNNVN [PCDH19_Y1097]", "TARGET": "MERTK (UniProt Q12866)", "phosphorylation enrichment": 0.612}
{"RESIDUE_CODES": "CTTIHYDYMCN [TP53_Y234_N235D]", "TARGET": "MERTK (UniProt Q12866)", "phosphorylation enrichment": 0.591}
{"RESIDUE_CODES": "YGGLRCGYGVL [KRTAP20-2_Y13_Y13C]", "TARGET": "MERTK (UniProt Q12866)", "phosphorylation enrichment": 0.369}
{"RESIDUE_CODES": "GIKAAYEAELG [LMNA_Y81]", "TARGET": "MERTK (UniProt Q12866)", "phosphorylation enrichment": 0.404}
{"RESIDUE_CODES": "AGLVQYYMEHH [PTPN11_Y80_E76G]", "TARGET": "MERTK (UniProt Q12866)", "phosphorylation enrichment": 0.49}
